assay explanation: Clinical PK interaction, PART 2: zastaprazan and meloxicam in healthy subjects
Type: in vivo, human (healthy subjects)
conditions used: human, in vivo, oral; Z + M (zastaprazan 40 mg and meloxicam 15 mg), n = 22, mean ± SD; read-out: meloxicam AUCT, SS
Method: Zastaprazan may be used not only for acid-related gastric diseases but also for preventing gastric damage caused by NSAIDs. • JP-1366, 20 mg 2 capsules (zastaprazan citrate salt 40 mg) • Mobic capsule 15 mg (meloxicam 15 mg) […]
reported property: AUC(0-t) (ng·h/mL)
Report only the number, with the unit ng·h/mL understood.

Input Cc1cnc(NC(=O)C2=C(O)c3ccccc3S(=O)(=O)N2C)s1 [Meloxicam, meloxicam, reference compound] , output reported AUC(0-t).
44000

====

assay explanation: Clinical PK interaction, PART 1: zastaprazan and aceclofenac in healthy subjects
Assay type: in vivo, human (healthy subjects)
conditions used: human, plasma, oral; A (aceclofenac 100 mg alone), n = 22, mean ± SD; read-out: aceclofenac AUCT, SS
reported property: AUC(0-t) (ng·h/mL)
Report only the number, with the unit ng·h/mL understood.

Input O=C(O)COC(=O)Cc1ccccc1Nc1c(Cl)cccc1Cl [Aceclofenac, aceclofenac, reference compound] , output reported AUC(0-t).
20400

====

assay explanation: Clinical PK interaction, PART 1: zastaprazan and aceclofenac in healthy subjects
Format: in vivo, human (healthy subjects)
conditions used: human, oral; Z (zastaprazan 40 mg alone), n = 22, plasma, mean ± SD; read-out: zastaprazan Cmax, SS
reported property: Cmax (ng/mL)
Report only the number, with the unit ng/mL understood.

Input Cc1cccc(C)c1CNc1cc(C(=O)N2CCC2)cn2c(C)c(C)nc12.O=C(O)CC(O)(CC(=O)O)C(=O)O [Zastaprazan] , output reported Cmax.
242

====

assay explanation: Clinical PK interaction, PART 2: zastaprazan and meloxicam in healthy subjects
Type: in vivo, human (healthy subjects)
conditions used: human, oral; Z + M (zastaprazan 40 mg and meloxicam 15 mg), n = 22, plasma, mean ± SD; read-out: meloxicam Cmax, SS
reported property: Cmax

Input Cc1cnc(NC(=O)C2=C(O)c3ccccc3S(=O)(=O)N2C)s1 [Meloxicam, meloxicam, reference compound] , output reported Cmax.
2640 ng/mL

====

assay explanation: clinical
Format: in vivo, human (healthy subjects)
conditions used: human, oral; Z (zastaprazan 40 mg alone), n = 22, plasma, mean ± SD; read-out: zastaprazan Cmax, SS
reported property: Cmax (ng/mL)
Report only the number, with the unit ng/mL understood.

Input Cc1cccc(C)c1CNc1cc(C(=O)N2CCC2)cn2c(C)c(C)nc12.O=C(O)CC(O)(CC(=O)O)C(=O)O [Zastaprazan] , output reported Cmax.
264

====

assay explanation: Clinical PK interaction, PART 1: zastaprazan and aceclofenac in healthy subjects
Assay type: in vivo, human (healthy subjects)
conditions used: human, oral; Z + A (zastaprazan 40 mg and aceclofenac 100 mg), n = 22, plasma, mean ± SD; read-out: aceclofenac Cmax, SS
reported property: Cmax
Please provide the amount together with its unit, number first.

Input O=C(O)COC(=O)Cc1ccccc1Nc1c(Cl)cccc1Cl [Aceclofenac, aceclofenac, reference compound] , output reported Cmax.
11800 ng/mL

====

assay explanation: clinical
Type: in vivo, human (healthy subjects)
conditions used: human, in vivo, oral; Z (zastaprazan 40 mg alone), n = 22, mean ± SD; read-out: zastaprazan AUCT, SS
reported property: AUC(0-t) (ng·h/mL)
Report only the number, with the unit ng·h/mL understood.

Input Cc1cccc(C)c1CNc1cc(C(=O)N2CCC2)cn2c(C)c(C)nc12.O=C(O)CC(O)(CC(=O)O)C(=O)O , output reported AUC(0-t).
1380
